// reported inhibition per item
TARGET_DESC: cAMP-dependent protein kinase catalytic subunit alpha (Homo sapiens) (UniProt P17612);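 also: mean percent inhibition of PKA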
TEST_PARAMETERS: at 1 µM
ENDPOINT_NAME: inhibition (%)

>>> df
                                  mol_smiles  endpoint_name  reading
 0  CCS(=O)(=O)c1ccc(OC)c(Nc2nccc(N(C)c3ccc4c(C)n[nH]c4c3)n2)c1     inhibition     0.84
 1    N#Cc1cccc(Nc2nccc(-c3cnn4ncccc34)n2)c1     inhibition     12.8
 2   NC(=O)c1cccc(Nc2nccc(Nc3cccc(F)c3)n2)c1     inhibition     0.76
 3     COc1cc(/C=N/Nc2ncnc3c2cnn3C(C)C)ccc1O     inhibition     3.87
 4   Cc1ccc(C(=O)NC2CC2)cc1-c1ccc2[nH]ncc2c1     inhibition     0.47
 5  Cc1ccc2c(c1)/C(=N/Nc1ccc(S(N)(=O)=O)cc1)C(=O)N2     inhibition     1.28
 6  O=C1Nc2ccc(-c3cccnc3)cc2C1=Cc1cc(Br)c(O)c(Br)c1     inhibition     1.19
 7  COc1cccc(-n2ncc3c(N/N=C/c4ccc(S(C)(=O)=O)cc4)ncnc32)c1     inhibition    -0.93
 8  NS(=O)(=O)c1cccc(Nc2cc(-c3ccc(F)cc3)n[nH]2)c1     inhibition     6.49
 9  NS(=O)(=O)c1ccc(NC=C2C(=O)Nc3ccc4ncsc4c32)cc1     inhibition     11.8
10  Cc1ccc(Nc2ccnc(Nc3cccc(C(N)=O)c3)n2)cc1O     inhibition    -0.05
11  CN(c1ccc(NC(=O)Nc2ccc(OC(F)(F)F)cc2)cc1)c1ccnc(Nc2cccc(S(N)(=O)=O)c2)n1     inhibition     2.04
12             CCOc1nccc2c1nc(-c1nonc1N)n2CC     inhibition     9.17
13   Cc1nc(-c2ccccc2)n2nc(NCCCN3CCOCC3)ncc12     inhibition     2.12
14  O=S(=O)(CCOCc1ccc(-c2ccc3ncnc(Nc4ccc(OCc5cccc(F)c5)c(Cl)c4)c3c2)o1)c1ccccc1     inhibition     -0.2

----------
TARGET_DESC: Serine/threonine-protein kinase pim-1 (Homo sapiens);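 also: reported figures are mean percent inhibition of PIM1 kinase activity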
TEST_PARAMETERS: at 1 µM
ENDPOINT_NAME: inhibition (%)

                                 mol_smiles  reading
0  Nc1ccc(C#Cc2cncnc2Nc2ccc(OCc3cccc(F)c3)c(Cl)c2)cc1     1.21
1  COc1cc(Nc2nccc(-c3cnn4ncccc34)n2)cc(OC)c1      6.3
2  CC(C)c1ccc2c(c1)NC(=O)/C2=N/Nc1ccc(S(N)(=O)=O)cc1    -0.22
3  CN(c1ccc(NC(=O)Nc2ccc(OC(F)(F)F)cc2)cc1)c1ccnc(Nc2cccc(S(N)(=O)=O)c2)n1    -0.84
4   NC(=O)c1cccc(Nc2nccc(Nc3cccc(F)c3)n2)c1     -0.4
5  Cc1ccc(Nc2ccnc(Nc3cccc(C(N)=O)c3)n2)cc1O     1.49
6  CN(C)C(=O)O[C@H]1CN[C@H](C#Cc2cc3ncnc(Nc4ccc(OCc5cccc(F)c5)c(Cl)c4)c3s2)C1      0.1

----------
Tested on: Platelet-derived growth factor receptor alpha (Homo sapiens), P16234 [T674I]
Sequence (P16234 whole entry T674I): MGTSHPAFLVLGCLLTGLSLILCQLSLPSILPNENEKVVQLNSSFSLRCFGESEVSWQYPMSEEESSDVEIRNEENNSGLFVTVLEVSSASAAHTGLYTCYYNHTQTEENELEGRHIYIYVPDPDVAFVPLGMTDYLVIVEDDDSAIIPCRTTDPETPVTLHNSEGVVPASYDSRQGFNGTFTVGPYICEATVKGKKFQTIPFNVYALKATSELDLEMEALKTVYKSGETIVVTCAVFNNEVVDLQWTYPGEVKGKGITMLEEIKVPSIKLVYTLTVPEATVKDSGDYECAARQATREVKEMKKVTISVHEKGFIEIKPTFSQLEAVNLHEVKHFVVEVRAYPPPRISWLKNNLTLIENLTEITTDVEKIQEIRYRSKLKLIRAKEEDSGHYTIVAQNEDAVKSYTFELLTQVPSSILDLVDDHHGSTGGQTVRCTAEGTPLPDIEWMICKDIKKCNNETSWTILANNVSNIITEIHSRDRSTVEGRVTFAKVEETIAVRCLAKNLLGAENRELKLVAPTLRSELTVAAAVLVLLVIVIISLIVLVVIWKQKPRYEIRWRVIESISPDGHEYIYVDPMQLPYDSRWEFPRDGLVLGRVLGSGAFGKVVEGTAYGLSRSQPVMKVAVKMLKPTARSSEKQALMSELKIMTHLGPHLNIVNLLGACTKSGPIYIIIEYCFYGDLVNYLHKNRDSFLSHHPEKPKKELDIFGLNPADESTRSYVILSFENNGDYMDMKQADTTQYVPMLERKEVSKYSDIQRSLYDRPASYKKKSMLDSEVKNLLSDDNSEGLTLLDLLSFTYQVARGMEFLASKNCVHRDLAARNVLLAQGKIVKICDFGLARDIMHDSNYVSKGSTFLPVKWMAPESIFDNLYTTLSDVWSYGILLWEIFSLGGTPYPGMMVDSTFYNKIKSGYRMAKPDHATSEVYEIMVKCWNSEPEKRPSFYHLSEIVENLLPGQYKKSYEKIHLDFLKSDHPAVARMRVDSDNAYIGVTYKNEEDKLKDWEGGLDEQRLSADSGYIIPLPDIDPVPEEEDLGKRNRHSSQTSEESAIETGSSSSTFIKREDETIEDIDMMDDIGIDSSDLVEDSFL
TEST_PARAMETERS: at 0.1 µM
ENDPOINT_NAME: inhibition (%)

                                 mol_smiles  reading
0  Nc1nccc(-c2c(-c3ccc(F)cc3)nn3cc(C(F)(F)F)ccc23)n1    -0.84
1  COC(=O)c1ccc2c(c1)C(=Cc1cc(Br)c(O)c(Br)c1)C(=O)N2     1.96
2  COC(=O)Nc1nc2cc(Oc3ccc(NC(=O)Nc4cccc(Br)c4)cc3)ccc2[nH]1     83.8
3  Cc1ccc2c(-c3ccnc(Nc4cccc(C(F)(F)F)c4)n3)c(-c3ccccc3)nn2n1     3.21
4  Nc1nccc(C#Cc2cncnc2Nc2ccc(OCc3cccc(F)c3)c(Cl)c2)n1     5.45
5  OCc1ccc(-c2nc(-c3ccccn3)c(-c3ccc4c(c3)OCO4)[nH]2)cc1     6.55
